B1: Zinc finger homeobox protein 3, residues 2244 to 2299; numbered along this chain, Q15911 (parent)
chain: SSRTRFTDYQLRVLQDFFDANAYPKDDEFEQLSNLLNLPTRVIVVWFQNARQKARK

Variants of: B1
Assay: abundance fitness (aPCA) (normalised: wild type 0, dead -1); higher = more abundant; growth selection in yeast, the domain comes from the species named
Details: Homo sapiens
readout kind: abundance fitness

Here are 8 variants together with their reported answers.
variant key | abundance fitness
R3G | 0.281
F17Y | 0.03
Q10D | -0.631
D8E | -0.138
R5E | 0.321
F29D | -0.955
D8M | -0.202
Q31S | -0.082

Query (variant): `Y23V` ; field requested: abundance fitness
-0.099

Look up abundance fitness: `Q15D`
-0.172

State the recorded abundance fitness for this entry: `L38H`
-0.967
